# System: HeLa Kyoto
# assay details: solubility change mitosis vs G1/S (difference of NP-40 vs SDS log2 ratios) (log2 ratio difference); higher = more soluble in mitosis
Please respond with reported solubility change mitosis (log2) for every item in the list.
One number for each entry.

- sequence text: "MAARRALHFVFKVGNRFQTARFYRDVLGMKVESCSVARLECSGAISAHCSDYTRITEDSFSKPYDGKWSKTMVGFGPEDDHFVAELTYNYGVGDYKLGNDFMGITLASSQAVSNARKLEWPLTEVAEGVFETEAPGGYKFYLQNRSLPQSDPVLKVTLAVSDLQKSLNYWCNLLGMKIYEKDEEKQRALLGYADNQCKLELQGVKGGVDHAAAFGRIAFSCPQKELPDLEDLMKRENQKILTPLVSLDTPGKATVQVVILADPDGHEICFVGDEAFRELSKMDPEGSKLLDDAMAADKSDEWFAKHNKPKASG [GLOD4]"
  solubility change mitosis (log2): -0.012

Okay, now this sequence:
Looking up MGELPLDINIQEPRWDQSTFLGRARHFFTVTDPRNLLLSGAQLEASRNIVQNYRAGVVTPGITEDQLWRAKYVYDSAFHPDTGEKVVLIGRMSAQVPMNMTITGCMLTFYRKTPTVVFWQWVNQSFNAIVNYSNRSGDTPITVRQLGTAYVSATTGAVATALGLKSLTKHLPPLVGRFVPFAAVAAANCINIPLMRQRELQVGIPVADEAGQRLGYSVTAAKQGIFQVVISRICMAIPAMAIPPLIMDTLEKKDFLKRRPWLGAPLQVGLVGFCLVFATPLCCALFPQKSSIHISNLEPELRAQIHEQNPSVEVVYYNKGL [SFXN3] , I found its solubility change mitosis (log2) recorded as -0.0789

----------
# Tested on: HeLa Kyoto
# assay details: melting temperature (median over replicates), in situ; higher = more thermally stable
# condition info: cell cycle stage: mitosis
observation type: melting temperature

- sequence text: "MENQVLTPHVYWAQRHRELYLRVELSDVQNPAISITENVLHFKAQGHGAKGDNVYEFHLEFLDLVKPEPVYKLTQRQVNITVQKKVSQWWERLTKQEKRPLFLAPDFDRWLDESDAEMELRAKEEERLNKLRLESEGSPETLTNLRKGYLFMYNLVQFLGFSWIFVNLTVRFCILGKESFYDTFHTVADMMYFCQMLAVVETINAAIGVTTSPVLPSLIQLLGRNFILFIIFGTMEEMQNKAVVFFVFYLWSAIEIFRYSFYMLTCIDMDWKVLTWLRYTLWIPLYPLGCLAEAVSVIQSIPIFNETGRFSFTLPYPVKIKVRFSFFLQIYLIMIFLGLYINFRHLYKQRRRRYGQKKKKIH [HACD3]"
  study system: "HeLa Kyoto"
  observation type: "melting temperature"
  assay result: "53.9 °C"

Okay, now this sequence:
Looking up MEVPPPAPRSFLCRALCLFPRVFAAEAVTADSEVLEERQKRLPYVPEPYYPESGWDRLRELFGKDEQQRISKDLANICKTAATAGIIGWVYGGIPAFIHAKQQYIEQSQAEIYHNRFDAVQSAHRAATRGFIRYGWRWGWRTAVFVTIFNTVNTSLNVYRNKDALSHFVIAGAVTGSLFRINVGLRGLVAGGIIGALLGTPVGGLLMAFQKYSGETVQERKQKDRKALHELKLEEWKGRLQVTEHLPEKIESSLQEDEPENDAKKIEALLNLPRNPSVIDKQDKD [TIMMDC1] , I found its melting temperature recorded as 55.2 °C

----------
# System: HeLa Kyoto
# assay details: thermal stability score vs G1/S (z-score of summed log2 fold changes over temperatures); higher = more thermally stable than in G1/S
# condition info: cell cycle stage: early G1 (4.5 h after nocodazole release)
Please respond with reported thermal stability score for every item in the list.
Numbers only.

- sequence text: "MFGPAKGRHFGVHPAPGFPGGVSQQAAGTKAGPAGAWPVGSRTDTMWRLRCKAKDGTHVLQGLSSRTRVRELQGQIAAITGIAPGGQRILVGYPPECLDLSNGDTILEDLPIQSGDMLIIEEDQTRPRSSPAFTKRGASSYVRETLPVLTRTVVPADNSCLFTSVYYVVEGGVLNPACAPEMRRLIAQIVASDPDFYSEAILGKTNQEYCDWIKRDDTWGGAIEISILSKFYQCEICVVDTQTVRIDRFGEDAGYTKRVLLIYDGIHYDPLQRNFPDPDTPPLTIFSSNDDIVLVQALELADEARRRRQFTDVNRFTLRCMVCQKGLTGQAEAREHAKETGHTNFGEV [YOD1]"
  thermal stability score: 0.646
- sequence text: "MDKLKKVLSGQDTEDRSGLSEVVEASSLSWSTRIKGFIACFAIGILCSLLGTVLLWVPRKGLHLFAVFYTFGNIASIGSTIFLMGPVKQLKRMFEPTRLIATIMVLLCFALTLCSAFWWHNKGLALIFCILQSLALTWYSLSFIPFARDAVKKCFAVCLA [SFT2D2]"
  thermal stability score: -0.835
- sequence text: "MTQPVPRLSVPAALALGSAALGAAFATGLFLGRRCPPWRGRREQCLLPPEDSRLWQYLLSRSMREHPALRSLRLLTLEQPQGDSMMTCEQAQLLANLARLIQAKKALDLGTFTGYSALALALALPADGRVVTCEVDAQPPELGRPLWRQAEAEHKIDLRLKPALETLDELLAAGEAGTFDVAVVDADKENCSAYYERCLQLLRPGGILAVLRVLWRGKVLQPPKGDVAAECVRNLNERIRRDVRVYISLLPLGDGLTLAFKI [COMTD1]"
  thermal stability score: -0.487

Each of the following entries comes with a recorded value; kindly state thermal stability score for each.
1. MTGQGQSASGSSAWSTVFRHVRYENLIAGVSGGVLSNLALHPLDLVKIRFAVSDGLELRPKYNGILHCLTTIWKLDGLRGLYQGVTPNIWGAGLSWGLYFFFYNAIKSYKTEGRAERLEATEYLVSAAEAGAMTLCITNPLWVTKTRLMLQYDAVVNSPHRQYKGMFDTLVKIYKYEGVRGLYKGFVPGLFGTSHGALQFMAYELLKLKYNQHINRLPEAQLSTVEYISVAALSKIFAVAATYPYQVVRARLQDQHMFYSGVIDVITKTWRKEGVGGFYKGIAPNLIRVTPACCITFVVYENVSHFLLDLREKRK [SLC25A32]
2. MAAARATTPADGEEPAPEAEALAAARERSSRFLSGLELVKQGAEARVFRGRFQGRAAVIKHRFPKGYRHPALEARLGRRRTVQEARALLRCRRAGISAPVVFFVDYASNCLYMEEIEGSVTVRDYIQSTMETEKTPQGLSNLAKTIGQVLARMHDEDLIHGDLTTSNMLLKPPLEQLNIVLIDFGLSFISALPEDKGVDLYVLEKAFLSTHPNTETVFEAFLKSYSTSSKKARPVLKKLDEVRLRGRKRSMVG [TP53RK]

[out]
-0.577
0.0261

----------
# System: HeLa Kyoto
# assay details: melting temperature (median over replicates), in situ; higher = more thermally stable
# condition info: cell cycle stage: mitosis
observation type: melting temperature (°C)
Give bare numbers, in °C.

Each of the following entries comes with a recorded value; kindly state melting temperature for each.
1. MDPRKVNELRAFVKMCKQDPSVLHTEEMRFLREWVESMGGKVPPATQKAKSEENTKEEKPDSKKVEEDLKADEPSSEESDLEIDKEGVIEPDTDAPQEMGDENAEITEEMMDQANDKKVAAIEALNDGELQKAIDLFTDAIKLNPRLAILYAKRASVFVKLQKPNAAIRDCDRAIEINPDSAQPYKWRGKAHRLLGHWEEAAHDLALACKLDYDEDASAMLKEVQPRAQKIAEHRRKYERKREEREIKERIERVKKAREEHERAQREEEARRQSGAQYGSFPGGFPGGMPGNFPGGMPGMGGGMPGMAGMPGLNEILSDPEVLAAMQDPEVMVAFQDVAQNPANMSKYQSNPKVMNLISKLSAKFGGQA [ST13]
2. MAMQAAKRANIRLPPEVNRILYIRNLPYKITAEEMYDIFGKYGPIRQIRVGNTPETRGTAYVVYEDIFDAKNACDHLSGFNVCNRYLVVLYYNANRAFQKMDTKKKEEQLKLLKEKYGINTDPPK [SF3B6]
3. MLARAARGTGALLLRGSLLASGRAPRRASSGLPRNTVVLFVPQQEAWVVERMGRFHRILEPGLNILIPVLDRIRYVQSLKEIVINVPEQSAVTLDNVTLQIDGVLYLRIMDPYKASYGVEDPEYAVTQLAQTTMRSELGKLSLDKVFRERESLNASIVDAINQAADCWGIRCLRYEIKDIHVPPRVKESMQMQVEAERRKRATVLESEGTRESAINVAEGKKQAQILASEAEKAEQINQAAGEASAVLAKAKAKAEAIRILAAALTQHNGDAAASLTVAEQYVSAFSKLAKDSNTILLPSNPGDVTSMVAQAMGVYGALTKAPVPGTPDSLSSGSSRDVQGTDASLDEELDRVKMS [STOML2]
4. MFRRPVLQVLRQFVRHESETTTSLVLERSLNRVHLLGRVGQDPVLRQVEGKNPVTIFSLATNEMWRSGDSEVYQLGDVSQKTTWHRISVFRPGLRDVAYQYVKKGSRIYLEGKIDYGEYMDKNNVRRQATTIIADNIIFLSDQTKEKE [SSBP1]
5. MGRSRSRSSSRSKHTKSSKHNKKRSRSRSRSRDKERVRKRSKSRESKRNRRRESRSRSRSTNTAVSRRERDRERASSPPDRIDIFGRTVSKRSSLDEKQKREEEEKKAEFERQRKIRQQEIEEKLIEEETARRVEELVAKRVEEELEKRKDEIEREVLRRVEEAKRIMEKQLLEELERQRQAELAAQKAREEEERAKREELERILEENNRKIAEAQAKLAEEQLRIVEEQRKIHEERMKLEQERQRQQKEEQKIILGKGKSRPKLSFSLKTQD [ARGLU1]
6. MLAARLVCLRTLPSRVFHPAFTKASPVVKNSITKNQWLLTPSREYATKTRIGIRRGRTGQELKEAALEPSMEKIFKIDQMGRWFVAGGAAVGLGALCYYGLGLSNEIGAIEKAVIWPQYVKDRIHSTYMYLAGSIGLTALSAIAISRTPVLMNFMMRGSWVTIGVTFAAMVGAGMLVRSIPYDQSPGPKHLAWLLHSGVMGAVVAPLTILGGPLLIRAAWYTAGIVGGLSTVAMCAPSEKFLNMGAPLGVGLGLVFVSSLGSMFLPPTTVAGATLYSVAMYGGLVLFSMFLLYDTQKVIKRAEVSPMYGVQKYDPINSMLSIYMDTLNIFMRVATMLATGGNRKK [GHITM]
7. MDHSHHMGMSYMDSNSTMQPSHHHPTTSASHSHGGGDSSMMMMPMTFYFGFKNVELLFSGLVINTAGEMAGAFVAVFLLAMFYEGLKIARESLLRKSQVSIRYNSMPVPGPNGTILMETHKTVGQQMLSFPHLLQTVLHIIQVVISYFLMLIFMTYNGYLCIAVAAGAGTGYFLFSWKKAVVVDITEHCH [SLC31A1]

[out]
51.3
51.2
59.3
59.6
50.4
55.1
54.9
